B1: USP39 (parent)
chain: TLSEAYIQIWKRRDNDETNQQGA

variants of: B1; experiment: protein stability index of a GFP-peptide fusion (GPS, HEK-293T) (PSI 1-6); higher = more stable; conditions: c terminus: native;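 further: lentivirally expressed fusions sorted by FACS into six bins by GFP to DsRed ratio, PSI derived from sequencing read proportions per bin multiplied by bin number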
resultType: protein stability index

Below: 8 variants and their reported protein stability index.
What measured protein stability index goes with `Q21G` ?
2.52

What measured protein stability index goes with `Q8N` ?
2.63

What measured protein stability index goes with `A23S` ?
3.94

What measured protein stability index goes with `N15W` ?
2.36

What measured protein stability index goes with `L2P` ?
2.6

What measured protein stability index goes with `R13N` ?
2.37

What measured protein stability index goes with `N15P` ?
1.77

What measured protein stability index goes with `Q20R` ?
2.35

***
What measured protein stability index goes with `E17G` ?
2.66

What measured protein stability index goes with `I7A` ?
2.93
